The measurements presented in this section are drawn from patent US20230151003A1.

Target: KDR (Homo sapiens, UniProt P35968)
Sequence (P35968 20-1356): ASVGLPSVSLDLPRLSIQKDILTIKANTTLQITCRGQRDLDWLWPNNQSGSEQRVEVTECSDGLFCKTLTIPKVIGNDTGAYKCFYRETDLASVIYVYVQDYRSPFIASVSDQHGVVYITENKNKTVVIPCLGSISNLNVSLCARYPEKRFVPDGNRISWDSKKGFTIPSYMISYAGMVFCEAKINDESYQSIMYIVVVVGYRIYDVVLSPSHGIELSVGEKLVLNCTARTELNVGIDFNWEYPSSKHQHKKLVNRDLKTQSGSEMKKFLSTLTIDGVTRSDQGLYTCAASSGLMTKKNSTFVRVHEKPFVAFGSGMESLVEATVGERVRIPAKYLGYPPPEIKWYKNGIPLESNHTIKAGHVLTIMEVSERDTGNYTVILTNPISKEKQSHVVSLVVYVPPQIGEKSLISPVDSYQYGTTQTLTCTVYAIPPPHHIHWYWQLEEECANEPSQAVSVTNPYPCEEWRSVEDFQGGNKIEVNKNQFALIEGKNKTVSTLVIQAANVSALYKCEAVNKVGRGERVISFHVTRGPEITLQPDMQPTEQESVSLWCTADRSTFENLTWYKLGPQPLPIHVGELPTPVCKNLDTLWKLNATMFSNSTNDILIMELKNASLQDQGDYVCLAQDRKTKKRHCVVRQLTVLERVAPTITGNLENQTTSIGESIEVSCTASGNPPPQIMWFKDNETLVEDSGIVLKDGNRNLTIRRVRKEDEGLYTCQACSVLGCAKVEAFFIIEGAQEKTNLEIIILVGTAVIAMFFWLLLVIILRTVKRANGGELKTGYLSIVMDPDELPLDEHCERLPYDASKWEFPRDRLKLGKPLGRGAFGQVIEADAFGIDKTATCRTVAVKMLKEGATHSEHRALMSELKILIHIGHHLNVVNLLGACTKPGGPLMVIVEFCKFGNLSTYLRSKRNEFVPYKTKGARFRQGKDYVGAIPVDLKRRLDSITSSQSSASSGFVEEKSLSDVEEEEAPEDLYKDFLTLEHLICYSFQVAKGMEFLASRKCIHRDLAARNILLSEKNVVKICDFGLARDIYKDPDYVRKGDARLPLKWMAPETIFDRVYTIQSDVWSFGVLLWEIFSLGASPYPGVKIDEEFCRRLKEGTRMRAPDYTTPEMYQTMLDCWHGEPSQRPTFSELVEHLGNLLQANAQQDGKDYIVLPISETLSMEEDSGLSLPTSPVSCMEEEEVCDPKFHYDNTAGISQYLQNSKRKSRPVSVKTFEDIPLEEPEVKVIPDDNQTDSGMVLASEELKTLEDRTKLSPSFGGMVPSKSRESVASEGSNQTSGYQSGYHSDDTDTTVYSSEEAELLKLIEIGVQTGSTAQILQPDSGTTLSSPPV
Experiment: KDR autophosphorylation ELISA in HUVEC cells
Format: cell-based
Set-up: endogenous in cells; host or cells: HUVEC (Lonza #C2519A)
Conditions: Table 3 Cellular Activities, VEGF165-stimulated, phospho-KDR ELISA
pIC50: −log10 of the molar value.
Hi there, I'd appreciate the recorded pIC50 for every entry that follows.

COc1cc2nccc(Oc3ccc(NC(=O)c4c(C)n(C)c(C)c(-c5ccco5)c4=O)cc3F)c2nc1OC [Compound 160]: 6.52 to 7.00
COCc1nc(C)c(-c2ccnc(C)c2)c(O)c1C(=O)Nc1ccc(Oc2ccnc3cc(OC)c(OC)nc23)c(F)c1 [Compound 198]: ≥ 7.00

Parameter requested: pIC50. Apply to each item below.
1. COc1cc2nccc(Oc3ccc(NC(=O)c4cnc(C)c(-c5cncs5)c4O)cc3F)c2nc1OC [Compound 141]
2. COc1cc2nccc(Oc3ccc(NC(=O)c4cnc(C)c(-c5ccco5)c4O)cc3F)c2nc1OC [Compound 89]
3. COc1cc2nccc(Oc3ccc(NC(=O)c4ccc(C)n(-c5cccnn5)c4=O)cc3F)c2nc1OC [Compound 234]
4. COc1cc2c(Oc3ccc(NC(=O)c4c(C)ncc(-c5ccccn5)c4O)cc3F)ccnc2cn1 [Compound 223]
5. COc1cc2nccc(Oc3ccc(NC(=O)c4ccc(C)n(-c5ccncc5F)c4=O)cc3F)c2nc1OC [Compound 220]
6. COc1cc2nccc(Oc3ccc(NC(=O)c4c5n(cc(-c6ccco6)c4=O)CCOC5)cc3)c2nc1OC [Compound 298]
7. COCCOc1cnc2c(Oc3ccc(NC(=O)c4c(C)n(C)c(C)c(-c5coc6ccccc56)c4=O)cc3F)ccnc2c1 [Compound 265]

Reply text:
["≥ 7.00", "≥ 7.00", "6.52 to 7.00", "≥ 7.00", "≥ 7.00", "6.00 to 6.52", "6.00 to 6.52"]
